# target_desc: T1, Fc tagged human TNFR1 (Sino Biological) (human, UniProt P19438 22-211, limits assumed)
# T1 construct: Bought reagent; also called hTNFR1; hTNFR1-Fc; not shown: Fc tag of the bought protein
# T1 sequence (looked up): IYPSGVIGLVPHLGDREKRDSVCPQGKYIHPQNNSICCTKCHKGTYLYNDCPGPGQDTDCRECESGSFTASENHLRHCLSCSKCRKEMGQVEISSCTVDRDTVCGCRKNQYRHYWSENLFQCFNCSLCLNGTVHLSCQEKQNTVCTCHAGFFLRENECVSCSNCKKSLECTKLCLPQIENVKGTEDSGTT
# experiment_notes: SPR, Biacore single cycle kinetics, stability study, after 1 year at -80° C.

{"binder": "TNF mutein G4 (ligand, Human TNF mutein, SSTYNP at positions 84-89; also called mutTNF G4; mutTNF; not shown: C-terminal FLAG tag and His6 tag from vector pANT65) VRSSSRTPSDKPVAHVVANPQAEGQLQWLNRRANALLANGVELRDNQLVVPSEGLYLIYSQVLFKGQGCPSTHVLLTHTISRISSTYNPKVNLLSAIKSPCQRETPEGAEAKPWYEPIYLGGVFQLEKGDRLSAEINRPDYLDFAESGQVYFGIIAL", "Kd / nM": 0.0399}
{"binder": "TNF mutein B5 (ligand, Human TNF mutein, TGTYVD at positions 84-89; not shown: C-terminal FLAG tag and His6 tag from vector pANT65) VHSSSRTPSDKPVAHVVANPQAEGQLQWLNRRANALLANGVELRDNQLVVPSEGLYLIYSQVLFKGQGCPSTHVLLTHTISRITGTYVDKVNLLSAIKSPCQRETPEGAEAKPWYEPIYLGGVFQLEKGDRLSAEINRPDYLDFAESGQVYFGIIAL", "Kd / nM": 0.0446}
{"binder": "TNF mutein B2 (ligand, Human TNF mutein, TASYSG at positions 84-89; not shown: C-terminal FLAG tag and His6 tag from vector pANT65) VRSSSRTPSDKPVAHVVANPQAEGQLQWLNRRANALLANGVELRDNQLVVPSEGLYLIYSQVLFKGQGCPSTHVLLTHTISRITASYSGKVNLLSAIKSPCQRETPEGAEAKPWYEPIYLGGVFQLEKGDRLSAEINRPDYLDFAESGQVYFGIIAL", "Kd / nM": 0.0407}
